Tested on: NCI-H460
measurement-notes: NCI tumour cell line growth inhibition, 48 h
Activity calls are given as the source filed them. No stated cut-off is given here; in the data, active = GI50 up to about 1.1 µM and inactive = higher.
Outcome (select one): active, inactive

COc1c(O)c2c3c(c(C)cc(O)c3c1O)C(=O)C(O)(C(C)(C)C(C)=O)C2=O (centres undefined)	inactive
CCN(CC)CCO/N=C1\CC[C@H]2[C@@H]3CCc4cc(OC)ccc4[C@H]3CC[C@]12C	active
O=C1C2C(C(=O)N1c1ccccc1)C1([N+](=O)[O-])C=C3c4ccccc4N(C(=O)c4ccccc4)C32C2C(=O)N(c3ccccc3)C(=O)C21 (centres undefined)	inactive
CC(C)=CC(O)C(C(O)CCC1(C)OCCO1)S(=O)(=O)c1ccccc1 (centres undefined)	inactive
FC(F)(F)c1ccc2c(c1)nc(Cc1ccc(Cl)c(Cl)c1)n2CC1CCCN2CCCCC12 (centres undefined)	inactive
COc1cc(/C=C/C(=O)CC(=O)/C=C/c2ccc(O)c(OC)c2)ccc1O [CURCUMIN]	inactive
O=[N+]([O-])c1ccc(-n2nnc(C3=NCCN3)c2-c2ccccc2)cc1	inactive
Nc1nc(Cl)cc(NCC2(CO)CC(c3ccccc3)C2)n1 (centres undefined)	inactive

What did this assay record as the result for C=CCN1C(N)=C(C#N)C(C#N)(C#N)C1CCC (centres undefined) ? inactive

====

Test system: NCI-H522
measurement-notes: NCI tumour cell line growth inhibition, 48 h
Calls of active or inactive are those of the source. No stated cut-off is given here; in the data, active = GI50 up to about 1.1 µM and inactive = higher.
Could you please report measured GI50 for the items listed next?

CCN(CC)CCO/N=C1\CC[C@H]2[C@@H]3CCc4cc(OC)ccc4[C@H]3CC[C@]12C	2.52 µM (inactive)

// for each compound below, give its GI50
1. N#C/C(=C\c1cc(Br)c(O)c(Br)c1)c1ccccn1
2. c1ccc(N/N=C2\NN=C(c3ccccc3)CS2)cc1
3. COC(=O)c1s/c(=N\C(=S)N(C)C)n(-c2ccccc2)c1C(=O)OC

["64.9 µM (inactive)", "3.49 µM (inactive)", "> 100 µM (inactive)"]

Below is a list of compounds. For each, state its recorded GI50.
1. COc1ccc(C(=O)/C=C/S/C(=N/C#N)SC)cc1
2. CC(C)=CC1CCc2ccccc2N1S(=O)(=O)c1ccc(C)cc1 (stereo unspecified)
3. COc1ccc(-c2cc(O)c3cc4c(cc3n2)OCO4)c(OC)c1
4. O=[N+]([O-])c1cccc(/N=N/c2c(O)c(S(=O)(=O)O)cc3cc(S(=O)(=O)O)ccc23)c1
5. N#CC1C(=O)NC(=O)C(C#N)C1c1ccc(Cl)c(Cl)c1 (stereo unspecified)
6. COc1nc(C(=O)NNC(=O)c2nc(OC)c3ccccc3c2-c2ccccc2)c(-c2ccccc2)c2ccccc12

18.2 µM (inactive)
1.52 µM (inactive)
46.9 µM (inactive)
> 100 µM (inactive)
15.7 µM (inactive)
> 100 µM (inactive)

// lookup GI50 | system=NCI-H522 | key= CC(=O)OC1CC2C(=O)CC1(C)C2(C)C (stereo unspecified) > 100 µM (inactive)

====

Tested on: OVCAR-8
measurement-notes: NCI tumour cell line growth inhibition, 48 h
Calls of active or inactive are those of the source. Cut-off read from the data, not from the text of the source: active = GI50 up to about 1.1 µM and inactive = higher.
Result category, one only: active, inactive

COc1ccc(CC2C(=O)NC(C)C(=O)N(C)C3C(=O)N(C)C(Cc4ccc(O)c(c4)Oc4ccc(cc4)C3O)C(=O)NC(C)C(=O)NC(C)C(=O)N2C)cc1.COc1ccc(CC2C(=O)NC(C)C(=O)N(C)C3Cc4ccc(cc4)Oc4cc(ccc4O)CC(C(=O)NC(C)C(=O)NC(C)C(=O)N2C)N(C)C3=O)cc1 (centres undefined)	active
CC(NC(=O)C(OC(=O)C(C)NC(=O)OC(C)(C)C)C(C)C)C(=O)OC(C(=O)O)C(C)C (centres undefined)	inactive
O=C(NP(=O)(N1CC1)N1CC1)c1cc(I)ccc1I	inactive
Cc1ccc2nc(NC(=O)/C(Cc3nc4ccc(Cl)cc4nc3O)=N\NC(C)(C)C)sc2c1	inactive
C/C(=N/NC(=O)c1ccccc1S(N)(=O)=O)C(CN1CCCCC1)C(C1=C(O)C2C=CC=CC2OC1=O)c1ccccc1 (centres undefined)	inactive
COc1ccc2nc3cc(Cl)ccc3c(NCCNCCCNC(=O)c3cc(-c4ccccc4)nc4ccccc34)c2c1	inactive

Can you look up the reported call for O=C(CC1=NCCN1)c1ccccc1 for me? inactive

Try this compound too: CCOc1ccccc1NC(=O)C1=C(C)NC(C)=C(C(=O)Nc2ccccc2OCC)C1c1cccc([N+](=O)[O-])c1 inactive

Nc1c(OCC(=O)O)ccc2cc(S(=O)(=O)O)ccc12 ? inactive
